test system: E. multilocularis metacestode vesicles; test: Phosphoglucose isomerase (PGI) release assay (damage-marker release) on metacestode vesicles; format: cell-based, Echinococcus multilocularis; details: overview screen, 10 μM, singlets, 12 days, relative to 0.1 % Triton X-100, DMSO subtracted
Test Readout: PGI d12 (relative PGI release) (%)
Give a bare numeral; the unit % is implied.

Past entries and their recorded results:
[[record]]
molecule = "O=c1[nH]cnc2c1ncn2[C@H]1CC[C@@H](CO)O1 [MMV637306]"
test_readout = "PGI d12 (relative PGI release)"
reported_measurement = 5.98

[[record]]
molecule = "COc1cc2c(O)c3c(c(-c4ccc5c(c4)OCO5)c2cc1OC)C(=O)OC3 [MMV102270]"
test_readout = "PGI d12 (relative PGI release)"
reported_measurement = 18.1463

[[record]]
molecule = "CC(=O)Oc1ccccc1C(=O)Nc1ncc([N+](=O)[O-])s1 [nitazoxanide, reference compound]"
test_readout = "PGI d12 (relative PGI release)"
reported_measurement = 44.5196

[[record]]
molecule = "O=C(NO)C1(CS(=O)(=O)c2ccc(Oc3ccc(Cl)cc3)cc2)CCOCC1 [MMV690706]"
test_readout = "PGI d12 (relative PGI release)"
reported_measurement = -1.025


Record summary for CCOC(=O)/C=C/[C@H](C[C@@H]1CCNC1=O)NC(=O)[C@@H](CC(=O)[C@@H](NC(=O)c1cc(C)on1)C(C)C)Cc1ccc(F)cc1 [MMV1580491] : reported PGI d12 (relative PGI release) = -17.2617

For reference, reported PGI d12 (relative PGI release) for O=C(NC1CCCc2c1[nH]c1ccc(Cl)cc21)c1ccccn1 (stereo not drawn) [MMV690621] stands at -17.1395

Looking up Cc1nc2ccc(Oc3ccccc3)cc2c2c1CCN2CCc1ccccc1 [MMV1634399] , I see its PGI d12 (relative PGI release) listed as 44.1623

Query O=C(O)/C=C/C=C/c1cccc(Oc2cc(Cl)cc(Cl)c2)c1 [MMV1633963] yields PGI d12 (relative PGI release) of 0.4233

* * *

tested on: E. multilocularis metacestode vesicles; assay: Metacestode vesicle viability assay (ATP, CellTiter-Glo); format: cell-based, Echinococcus multilocularis; details: overview screen, 10 μM, singlets, 12 days, relative to DMSO control
# strict inequality: Viability d12 (relative viability) < 80% yields True, everything else yields False

Reference set, count: 10
[[record]]
molecule = "O=S(=O)(Nc1ccc(-n2cccc2)cc1)c1ccc(Cl)c(Cl)c1 [MMV1505642]"
group_label = "True"

[[record]]
molecule = "C(=C\\c1nc2ccccc2[nH]1)/c1ccc2c(c1)OCO2 [MMV1582495]"
group_label = "False"

[[record]]
molecule = "CN(C)[C@@H]1C(=O)C(C(N)=O)=C(O)[C@@]2(O)C(=O)C3=C(O)c4c(O)c(NC(=O)CN5CCCC5)cc(F)c4C[C@H]3C[C@@H]12.Cl.Cl [MMV1578574]"
group_label = "True"

[[record]]
molecule = "Nc1nc(Nc2ccc3nc(-c4ccc(F)cc4)cc(N)c3c2)cc(-c2ccccc2)n1 [MMV1593541]"
group_label = "True"

[[record]]
molecule = "Cc1cc(-c2ccccc2)c(C(=O)C(=O)Nc2ccc(N3CCN(c4ncc(F)cn4)CC3)cc2)n1C [MMV1782354]"
group_label = "True"

[[record]]
molecule = "O=C(Nc1nnc(-c2ccc(Cl)cc2)o1)c1ccc(F)cc1 [MMV1782140]"
group_label = "False"

[[record]]
molecule = "O=C(CCCC(F)(F)F)N1CCC(c2nc(-c3nccs3)no2)CC1 [MMV1582491]"
group_label = "True"

[[record]]
molecule = "c1cnc(NCc2ccc(CNc3ncccn3)cc2)nc1 [MMV1580490]"
group_label = "True"

[[record]]
molecule = "COc1cc(Cc2cnc(N)nc2N)c2c(c1OC)OC(C1CC1)C=C2 (centres unmarked) [MMV1613563]"
group_label = "False"

[[record]]
molecule = "COc1ccc(C)cc1NC(=O)c1ccc(S(=O)(=O)N2CCCCC2)cc1 [MMV1578579]"
group_label = "True"


Turning now to a further record.
Qu. Problem: For the molecule CCOc1ccc(C(=O)NCCc2ccccc2)cc1 [MMV124656] , is Viability d12 (relative viability) under 80%?
Ans. False

* * *

Test system: E. multilocularis metacestode vesicles
Assay: Phosphoglucose isomerase (PGI) release assay (damage-marker release) on metacestode vesicles
Format: cell-based, Echinococcus multilocularis
Details: overview screen, 10 μM, singlets, 5 days, relative to 0.1 % Triton X-100, DMSO subtracted
Description: In order to quantify the drug-induced damage on whole metacestode vesicles, phosphoglucose isomerase (PGI) assay was performed as described previously ([Stadelmann et al., 2010]) with few adaptations published recently ([Kaethner et al., 2023]). […] PGI activity in the supernatants was measured on a HIDEX Sense microplate reader (Hidex, Turku, Finland). […] IC50 values were calculated applying the 3 parameter Weibull type 1 in R for each of the three independent experiments ([Ritler et al., 2020]).
Catalogue of PGI d5 (relative PGI release) values
Express the result in % but write the number alone.

Reference set (4 entries):
[[record]]
molecule = "c1ccc(Cn2c(-c3ccccn3)nc3ccccc32)cc1"
subject_of_test = "E. multilocularis metacestode vesicles"
test_readout = "PGI d5 (relative PGI release)"
reported_measurement = -1.473

[[record]]
molecule = "O=C1c2cccc3cccc(c23)C(=O)N1CC1CO1 (centres unmarked)"
subject_of_test = "E. multilocularis metacestode vesicles"
test_readout = "PGI d5 (relative PGI release)"
reported_measurement = -2.544

[[record]]
molecule = "NC(=O)c1ccc(I)c([N+](=O)[O-])c1"
subject_of_test = "E. multilocularis metacestode vesicles"
test_readout = "PGI d5 (relative PGI release)"
reported_measurement = 1.539

[[record]]
molecule = "Cl.N=C(N)c1ccc(COc2ccc(Cl)cc2)cc1"
subject_of_test = "E. multilocularis metacestode vesicles"
test_readout = "PGI d5 (relative PGI release)"
reported_measurement = -0.5727


We next turn to a different molecule, shown below.
So for CCN(CC)S(=O)(=O)c1ccc(Cl)c(C(=O)Nc2sc3c(c2C#N)CCCC3)c1 , the logged PGI d5 (relative PGI release) turned out to be 0.5897

* * *

test system: E. multilocularis metacestode vesicles; assay: Phosphoglucose isomerase (PGI) release assay (damage-marker release) on metacestode vesicles; format: cell-based, Echinococcus multilocularis; details: overview screen, 10 μM, singlets, 12 days, relative to 0.1 % Triton X-100, DMSO subtracted
Catalogue of PGI d12 (relative PGI release) readings, one per entry.
Value expressed in %; do not type the unit.

Check out these entries, answers already filled in.
[[record]]
compound = "Cc1cc(-c2ccccc2)c(C(=O)C(=O)Nc2ccc(N3CCN(c4ncc(F)cn4)CC3)cc2)n1C"
display_unit = "%"
reported_measurement = -11.1929

[[record]]
compound = "Nc1cnn(C2OC(CO)C(O)C2O)c(=O)n1 (centres unmarked)"
display_unit = "%"
reported_measurement = 10.061

[[record]]
compound = "CCOC(=O)N1CCN(c2ccc(Cl)cc2)CC1"
display_unit = "%"
reported_measurement = 1.172


The measured PGI d12 (relative PGI release) associated with O=S(=O)(Nc1ccccc1)c1ccc(NC(=S)Nc2ccccc2)cc1 reads -3.243

# PGI d12 (relative PGI release) of C[Si]1(C)CCN(Cc2cc(-c3ccc(Cl)cc3)n(-c3ccc(Cl)cc3)n2)CC1 = -1.571

* * *

# PGI d5 (relative PGI release) per entry
system: E. multilocularis metacestode vesicles; assay: Phosphoglucose isomerase (PGI) release assay (damage-marker release) on metacestode vesicles; type: cell-based, Echinococcus multilocularis; details: overview screen, 10 μM, singlets, 5 days, relative to 0.1 % Triton X-100, DMSO subtracted
Record the value in %, omitting the unit from your answer.

The following compounds have reported results that may help.
[[record]]
compound = "O=[N+]([O-])c1cn(Cc2nc(O)nc(O)c2Br)cn1 [MMV1579777]"
display_unit = "%"
reported_measurement = -0.845

[[record]]
compound = "CCc1cc(O)c(Oc2cccnc2N)cc1F [MMV1580854]"
display_unit = "%"
reported_measurement = -1.596

[[record]]
compound = "CC1(C)C[C@H]1C(=O)N/C(=C\\CCCCSC[C@@H](N)C(=O)O)C(=O)O.[Na+] [MMV1613559]"
display_unit = "%"
reported_measurement = -0.3777


Reported PGI d5 (relative PGI release) ( Cc1cc(CCCOc2c(C)cc(-c3noc(C(F)(F)F)n3)cc2C)on1 [MMV690467] ) = 0.4162

* * *

system: E. multilocularis metacestode vesicles; assay: Metacestode vesicle viability assay (ATP, CellTiter-Glo); assay type: cell-based, Echinococcus multilocularis; details: overview screen, 10 μM, singlets, 12 days, relative to DMSO control
Test Readout: Viability d12 (relative viability)
Report field: quantity (unit follows the number).

Use these answered entries as a reference point.
[[record]]
smi = "CCc1ccccc1OCCN1CCCCCC1"
test_readout = "Viability d12 (relative viability)"
reported_measurement = "159.976%"

[[record]]
smi = "CC(C)Cn1c(=O)n(C)c(=O)c2c(-c3cncn3C)n(Cc3cccc4ccccc34)nc21"
test_readout = "Viability d12 (relative viability)"
reported_measurement = "31.7083%"

[[record]]
smi = "O=C(NC(=O)N1CCCc2ccccc21)c1cccc(Cl)c1"
test_readout = "Viability d12 (relative viability)"
reported_measurement = "118.649%"


What the record says about CCC[C@H](NC(=O)[C@@H]1[C@H]2CCC[C@H]2CN1C(=O)[C@@H](NC(=O)[C@@H](NC(=O)c1cnccn1)C1CCCCC1)C(C)(C)C)C(=O)C(=O)NC1CC1 : Viability d12 (relative viability) is 83.9614%
